Biological target: T1, Soluble CDCP1 extracellular domain (CDCP1-ECD) (SEQ ID NO:30) fused to Streptavidin Binding Protein (SBP) (human, UniProt Q9H5V8 30-663)
T1 construct: also called SBP-CDCP1-ECD
T1 sequence: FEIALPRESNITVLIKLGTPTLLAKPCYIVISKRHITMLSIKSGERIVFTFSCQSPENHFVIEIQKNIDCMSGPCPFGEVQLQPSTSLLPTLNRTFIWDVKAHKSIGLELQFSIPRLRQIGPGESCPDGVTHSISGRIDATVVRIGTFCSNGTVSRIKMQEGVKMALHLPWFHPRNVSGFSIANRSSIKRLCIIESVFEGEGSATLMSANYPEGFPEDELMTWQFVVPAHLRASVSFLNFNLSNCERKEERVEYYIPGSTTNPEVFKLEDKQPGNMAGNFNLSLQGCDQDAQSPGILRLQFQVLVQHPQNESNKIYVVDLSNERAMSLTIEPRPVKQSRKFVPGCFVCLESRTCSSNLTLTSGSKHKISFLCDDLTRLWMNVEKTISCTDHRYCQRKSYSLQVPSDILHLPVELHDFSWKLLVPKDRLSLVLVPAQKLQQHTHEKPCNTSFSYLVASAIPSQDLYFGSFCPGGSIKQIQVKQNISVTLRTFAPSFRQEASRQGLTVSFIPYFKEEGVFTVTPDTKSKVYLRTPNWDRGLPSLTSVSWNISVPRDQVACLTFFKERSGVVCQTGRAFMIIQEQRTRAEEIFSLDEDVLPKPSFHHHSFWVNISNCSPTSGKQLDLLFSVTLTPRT
Assay: ELISA on captured SBP-CDCP1-ECD, ratio relative to chimeric CUB4 (chHC4)
Procedure: Soluble CDCP1 extracellular domain (CDCP1-ECD) (SEQ ID NO:30) fused to Streptavidin Binding Protein (SBP) was captured on a sreptavidine plate. […] Humanized CUB4 antibodies and/or reference antibody (chimeric (chHC4) CUB4 antibody comprising human constant region and mouse VH and VL of SEQ ID NO:1 and 2) were tested either undiluted or using a 12-step-dilution. […] After intensive washing the binding of the antibodies was detected with ABTS tablets (Roche Diagnostics GmbH, Cat. No.: 1112422). […]
MEASURED_QUANTITY: relative binding ratio
Returns: the value as a bare number; no unit string appended.

Solved entries:
1) hHC4-K2 / hLC4-L2 (antibody, V domains shown) VH: EVQLVESGGGLVKPGGSLRLSCAASGFTFNSYGMSWVRQAPGKGLEWVSSISSGGSYTYYADSVKGRFTISRDNAKNSLYLQMNSLRAEDTAVYYCARHPDYDGVWFAYWGQGTLVTVSS VL: EIVLTQSPATLSLSPGERATMSCSVSSSVFYLHWYQQKPGQAPRLWIYDTSKLASGIPARFSGSGSGTDFTLTISSLEPEDFAVYYCQQWNSNPPTFGGGTKVEIK; 0.2
2) hHC4-d / hLC4-a (antibody, V domains shown) VH: EVQLLESGGGLVQPGGSLRLSCAASGFTFNSYGMSWVRQAPGKGLEWVSTISSGGSYTYYPDSVKGRFTISRDNSKNTLYLQMNSLRAEDTAVYYCAKHPDYDGVWFAYWGQGTLVTVSS VL: EIVLTQSPATLSLSPGERATLSCSVSSSVFYVHWYQQKPGQAPRLLIYDTSKLASGIPARFSGSGSGTDFTLTISSLEPEDFAVYYCQQWNSNPPTFGGGTKVEIK; 0.34

As a next step, examine the binder that follows.
Query :: Value lookup for relative binding ratio; key = hHC4-d / hLC4-c (antibody, V domains shown) VH: EVQLLESGGGLVQPGGSLRLSCAASGFTFNSYGMSWVRQAPGKGLEWVSTISSGGSYTYYPDSVKGRFTISRDNSKNTLYLQMNSLRAEDTAVYYCAKHPDYDGVWFAYWGQGTLVTVSS VL: EIVMTQSPATLSVSPGERATLSCSVSSSVFYVHWYQQKPGQAPRLLIYDTSKLASGIPARFSGSGSGTEFTLTISSLQSEDFAVYYCQQWNSNPPTFGGGTKVEIK
Result :: 0.45

FYI, the data here is from patent US20110052582A1.
